biological target: recombinant human MMP-1 (Homo sapiens); assay: In vitro metalloprotease inhibition, fluorogenic peptide assay (MMP-1); details: recombinant human MMP-1, APMA activated; fluorogenic MCA peptide substrate 4 uM; pH 7.5, room temperature
Below, each entry is listed alongside its reported IC50.
Report the value in µM with no unit label.

Would you please look over these solved cases?
compound=COc1ccc(S(=O)(=O)N(Cc2ncc[nH]2)[C@H](C)CS)cc1 reportedendpoint=IC50 unitinfo=µM testvalue=2
compound="COc1ccc(S(=O)(=O)N(Cc2ccccc2)[C@H](C)CS)cc1 (racemic) [Example 56]" reportedendpoint=IC50 unitinfo=µM testvalue=2

Per the record, C[C@H](CS)N(Cc1ccccc1)S(=O)(=O)c1ccc2c(c1)OCO2 [Example 21C] has IC50 of 7

Per the record, CCCCOc1ccc(S(=O)(=O)N(CCN2CCOCC2)[C@@H](CS)C(=O)NC)cc1 has IC50 of 2.9

Per the record, COC(=O)[C@H](CSSC[C@@H](C(=O)OC)N(C)S(=O)(=O)c1ccc(OC)cc1)N(C)S(=O)(=O)c1ccc(OC)cc1 has IC50 of 1

Per the record, C[C@H](CS)NS(=O)(=O)c1ccc(F)cc1 has IC50 of 0.3

Per the record, CCCCOc1ccc(S(=O)(=O)N[C@@H](CS)C(=O)NCC(=O)O)cc1 has IC50 of 2

Per the record, COc1ccc(S(=O)(=O)N(Cc2cccnc2)[C@H](C)CS)cc1 has IC50 of 0.3

Per the record, CCCCCN(CCS)S(=O)(=O)c1ccc(OC)cc1 has IC50 of 4.2

Per the record, CCOc1ccc(S(=O)(=O)N(C)[C@H](C)CS)cc1 [Example 38C] has IC50 of 2.5

###

Below, each entry is listed alongside its reported IC50.
molecular target: recombinant human MMP-1 (Homo sapiens, UniProt P03956); test: In vitro metalloprotease inhibition, fluorogenic peptide assay (MMP-1); settings: recombinant human MMP-1, APMA activated; fluorogenic MCA peptide substrate 4 uM; pH 7.5, room temperature
Report the value in µM with no unit label.

Would you please look over these solved cases?
compound="C[C@H](CS)N(C)S(=O)(=O)c1ccc2c(c1)OCO2 [Example 20C]" testedtarget="recombinant human MMP-1 (Homo sapiens, UniProt P03956)" testvalue=3
compound="C[C@H](CS)N(CCN1CCOCC1)S(=O)(=O)c1ccc(Oc2ccc(CCC(=O)O)cc2)cc1 [Example 117]" testedtarget="recombinant human MMP-1 (Homo sapiens, UniProt P03956)" testvalue=8
compound="C[C@H](CS)N(C)S(=O)(=O)c1ccc(-c2ccccn2)s1 [Example 156]" testedtarget="recombinant human MMP-1 (Homo sapiens, UniProt P03956)" testvalue=1.07

Per the record, COc1ccc(-c2ccc(S(=O)(=O)N(C)[C@H](C)CS)cc2)cc1 [Example 124] has IC50 of 2.1

Per the record, COc1ccc(S(=O)(=O)N(Cc2ccccc2)C(CS)CC(C)C)cc1 (racemic) [Example 29F] has IC50 of 8

Per the record, CCCCCc1ccc(S(=O)(=O)N(CCN2CCOCC2)[C@H](C)CS)cc1 [Example 54] has IC50 of 9

###

Target: recombinant human MMP-1 (Homo sapiens)
Sequence (P03956 100-469): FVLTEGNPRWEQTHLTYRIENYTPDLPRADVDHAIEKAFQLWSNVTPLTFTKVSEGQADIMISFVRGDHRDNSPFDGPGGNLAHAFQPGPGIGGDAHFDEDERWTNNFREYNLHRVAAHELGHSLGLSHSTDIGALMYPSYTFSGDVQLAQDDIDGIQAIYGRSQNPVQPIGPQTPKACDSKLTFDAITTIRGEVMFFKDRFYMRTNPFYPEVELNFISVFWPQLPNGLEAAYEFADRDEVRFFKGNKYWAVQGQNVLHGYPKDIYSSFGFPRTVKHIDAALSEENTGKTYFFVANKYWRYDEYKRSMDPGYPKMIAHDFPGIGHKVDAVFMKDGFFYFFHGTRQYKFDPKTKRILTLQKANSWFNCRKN
Experiment: In vitro metalloprotease inhibition, fluorogenic peptide assay (MMP-1)
Settings: recombinant human MMP-1, APMA activated; fluorogenic MCA peptide substrate 4 uM; pH 7.5, room temperature
Below, each entry is listed alongside its reported IC50.
Report the value in µM with no unit label.

compound="CCCCOc1ccc(S(=O)(=O)N(CCN2CCOCC2)[C@H](C)CS)cc1 [Example 107]" reportedendpoint=IC50 testvalue=4
compound="COc1ccc(S(=O)(=O)N(Cc2ccccc2)[C@@H](CS)C(C)C)cc1 [Example 31D]" reportedendpoint=IC50 testvalue=2.5
compound="COc1ccc(S(=O)(=O)N(C)[C@H](C)CS)cc1 [Example 11D]" reportedendpoint=IC50 testvalue=0.3

Per the record, COc1ccc(S(=O)(=O)N(CCS)Cc2ccccc2)cc1 has IC50 of 4

###

biological target: recombinant human MMP-1 (Homo sapiens); experiment: In vitro metalloprotease inhibition, fluorogenic peptide assay (MMP-1); conditions: recombinant human MMP-1, APMA activated; fluorogenic MCA peptide substrate 4 uM; pH 7.5, room temperature
pIC50: −log10 of the molar value.
Below, each entry is listed alongside its reported pIC50.

Would you please look over these solved cases?
compound=CC(=O)SC[C@@H](C(N)=O)N(CCN1CCOCC1)S(=O)(=O)c1ccc(Sc2ccccc2)cc1 testedtarget="recombinant human MMP-1 (Homo sapiens)" testvalue="< 5.00"
compound=C[C@H](CS)NS(=O)(=O)c1ccc(OC(F)(F)F)cc1 testedtarget="recombinant human MMP-1 (Homo sapiens)" testvalue=5.30
compound="COc1ccc(S(=O)(=O)N(Cc2ccccc2)C(CSC(C)=O)C(C)C)cc1 (stereo not shown) [Example 33C]" testedtarget="recombinant human MMP-1 (Homo sapiens)" testvalue="< 5.00"

Turning to the following compound.
Tested on recombinant human MMP-1 (Homo sapiens), the item COc1ccc(S(=O)(=O)N(Cc2ccccc2)[C@H](CS)C(C)C)cc1 [Example 33D] showed pIC50 equal to < 5.00

###

target: recombinant human MMP-13 (Homo sapiens, UniProt P45452); construct: made in house; assay: In vitro metalloprotease inhibition, fluorogenic peptide assay (MMP-13); type: biochemical; details: recombinant human MMP-13, APMA activated; fluorogenic MCA peptide substrate 4 uM; pH 7.5, room temperature
Below, each entry is listed alongside its reported pIC50.
Scale for pIC50: -log10 of concentration given in mol/L; no unit attached.

compound=C[C@H](CSC(=O)c1cccs1)N(CCN1CCOCC1)S(=O)(=O)c1ccc(Sc2ccccc2)cc1 reportedendpoint=pIC50 testvalue=7.33
compound=COc1ccc(S(=O)(=O)N(Cc2cccnc2)[C@H](C)CS)cc1 reportedendpoint=pIC50 testvalue=7.76
compound=COC(=O)c1ccccc1S(=O)(=O)N[C@H](C)CS reportedendpoint=pIC50 testvalue=5.64
compound=C[C@H](CS)NS(=O)(=O)c1sc(Br)cc1Br reportedendpoint=pIC50 testvalue=5.07
compound="CCCCOc1ccc(S(=O)(=O)N[C@@H](CS)C(=O)O)cc1 [Example 210]" reportedendpoint=pIC50 testvalue=5.88
compound=COc1ccc(S(=O)(=O)N(CCCS)Cc2ccccc2)cc1 reportedendpoint=pIC50 testvalue=5.40
compound=C[C@H](CS)NS(=O)(=O)c1cc(Br)c(Cl)s1 reportedendpoint=pIC50 testvalue=5.52

Per the record, CCOc1ccc(S(=O)(=O)N(C)[C@H](C)CS)cc1 [Example 38C] has pIC50 of 7.51

###

target: recombinant human MMP-13 (Homo sapiens, UniProt P45452); construct: made in house; assay: In vitro metalloprotease inhibition, fluorogenic peptide assay (MMP-13); type: biochemical; conditions: recombinant human MMP-13, APMA activated; fluorogenic MCA peptide substrate 4 uM; pH 7.5, room temperature
reportedEndpoint: IC50 (nM)
Report the value in nM with no unit label.

Tested on recombinant human MMP-13 (Homo sapiens, UniProt P45452), the item NC(=O)[C@H](CSSC[C@@H](C(N)=O)N(CCN1CCOCC1)S(=O)(=O)c1ccc(Oc2ccccc2)cc1)N(CCN1CCOCC1)S(=O)(=O)c1ccc(Oc2ccccc2)cc1 showed IC50 equal to 1.5

Tested on recombinant human MMP-13 (Homo sapiens, UniProt P45452), the item CCCCOc1ccc(S(=O)(=O)N[C@@H](CS)C(N)=O)cc1 showed IC50 equal to 3.3

###

molecular target: recombinant human MMP-13 (Homo sapiens); construct: made in house; experiment: In vitro metalloprotease inhibition, fluorogenic peptide assay (MMP-13); format: biochemical; settings: recombinant human MMP-13, APMA activated; fluorogenic MCA peptide substrate 4 uM; pH 7.5, room temperature
Sorting guide: entries reporting IC50 beneath 2 nM go in the true (1) pile, the rest go in the false (0) pile.

Consider the following illustrative entries.
molecule="CCCCOc1ccc(S(=O)(=O)N[C@@H](CS)C(=O)O)cc1 [Example 181]" classassignment="false (0)"
molecule=C[C@H](CS)NS(=O)(=O)c1ccc(/N=N/c2ccc(N(C)C)cc2)cc1 classassignment="true (1)"
molecule=CCCCOc1ccc(S(=O)(=O)N(CCN2CCOCC2)[C@@H](CS)C(=O)NC)cc1 classassignment="false (0)"

**Query** I'd appreciate it if you could check whether CCCCOc1ccc(S(=O)(=O)N(Cc2ccncc2)[C@@H](CS)C(N)=O)cc1 has IC50 smaller than 2 nM.
**Result** true (1)

**Query** I'd appreciate it if you could check whether C[C@H](CS)NS(=O)(=O)c1ccc(Cl)s1 has IC50 smaller than 2 nM.
**Result** false (0)
